MEASURED ON: T1, recombinant human IL4Rα-his protein (in house made) (human, UniProt P24394 26-232, limits assumed)
T1 construct: also called Human IL4Ra-his
TEST NAME: SPR (Biacore), antibody captured, IL4Rα-his flowed
RESULT TYPE: koff

In plain terms, huC2C1A1A1-V9 (antibody, human IgG4 S228P, kappa, V domains shown, Humanized, human IgG4/kappa) VH: EVQLVESGGGLVQPGGSLRLSCAASGFTFSTYGMSWVRQAPGKGLVLVATINSNGGSTSYPDSVKGRFTISRDNAKNTLYLQMNSLRAEDTAVYYCARFFRFRNAMDYWGQGTLVTVSS VL: DIQMTQSPSSLSASVGDRVTITCRTSENIYSYLAWYQQKPGKAPKLLIYNAKTLAEGVPSRFSGSGSGTDFTLTISSLQPEDFATYYCQHYYGPPTWTFGQGTKVEIKR has a documented koff of < 1e-05 s⁻¹

// huC2C1A1A1-V6 (antibody, human IgG4 S228P, kappa, V domains shown, Humanized, human IgG4/kappa) VH: EVQLVESGGGLVQPGGSLRLSCAASGFTFSTYGMSWVRQSPDKRLEWVSTINSNGGSTSYPDSVKGRFTISRDNAKNTLYLQMRSLRAEDTAVYYCARFFRFRNAMDYWGQGTLVTVSS VL: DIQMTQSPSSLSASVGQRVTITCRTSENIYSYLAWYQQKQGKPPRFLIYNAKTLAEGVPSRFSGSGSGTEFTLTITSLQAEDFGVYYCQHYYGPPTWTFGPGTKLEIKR : koff value = < 1e-05 s⁻¹

Input huC2C1A1A1-V12 (antibody, human IgG4 S228P, kappa, V domains shown, Humanized, human IgG4/kappa) VH: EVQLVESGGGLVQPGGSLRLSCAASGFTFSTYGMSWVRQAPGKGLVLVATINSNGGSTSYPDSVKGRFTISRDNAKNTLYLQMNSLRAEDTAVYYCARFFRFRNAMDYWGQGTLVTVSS VL: DIQMTQSPSSLSASVGDRVTITCRTSENIYSYLAWYQQKPGKAPKFLIYNAKTLAEGVPSRFSGSGSGTDFTLTISSLQPEDFATYYCQHYYGPPTWTFGQGTKVEIKR . Output koff: 1.42e-05 s⁻¹

koff reading for huC2C1A1A1-V13 (antibody, human IgG4 S228P, kappa, V domains shown, Humanized, human IgG4/kappa) VH: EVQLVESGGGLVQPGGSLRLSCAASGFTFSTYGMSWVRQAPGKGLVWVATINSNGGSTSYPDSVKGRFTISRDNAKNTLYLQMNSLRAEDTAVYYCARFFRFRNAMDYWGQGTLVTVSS VL: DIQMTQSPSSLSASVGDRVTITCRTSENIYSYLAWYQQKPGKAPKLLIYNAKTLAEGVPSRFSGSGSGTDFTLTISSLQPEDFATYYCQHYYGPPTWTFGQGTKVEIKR : < 1e-05 s⁻¹

binder huC2C1A1A1-V14 (antibody, human IgG4 S228P, kappa, V domains shown, Humanized, human IgG4/kappa) VH: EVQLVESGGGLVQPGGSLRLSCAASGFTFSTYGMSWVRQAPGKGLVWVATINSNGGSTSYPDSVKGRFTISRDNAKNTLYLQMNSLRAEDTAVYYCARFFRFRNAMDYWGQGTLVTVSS VL: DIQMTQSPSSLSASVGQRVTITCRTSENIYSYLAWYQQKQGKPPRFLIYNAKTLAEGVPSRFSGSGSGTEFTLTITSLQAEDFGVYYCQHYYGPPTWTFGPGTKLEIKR , koff observed: < 1e-05 s⁻¹

Record huC2C1A1A1-V1 (antibody, human IgG4 S228P, kappa, V domains shown, Humanized, human IgG4/kappa) VH: EVQLVESGGGLVQPGGSLRLSCAASGFTFSTYGMSWVRQAPGKGLVWVSTINSNGGSTSYPDSVKGRFTISRDNAKNTLYLQMNSLRAEDTAVYYCARFFRFRNAMDYWGQGTLVTVSS VL: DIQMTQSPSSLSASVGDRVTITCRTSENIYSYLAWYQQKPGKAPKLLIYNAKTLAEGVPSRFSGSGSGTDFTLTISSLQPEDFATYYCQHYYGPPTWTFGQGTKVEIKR . Reported koff: < 1e-05 s⁻¹
